Target: T1, MutS (Escherichia coli, UniProt P23909 1-853)
T1 sequence: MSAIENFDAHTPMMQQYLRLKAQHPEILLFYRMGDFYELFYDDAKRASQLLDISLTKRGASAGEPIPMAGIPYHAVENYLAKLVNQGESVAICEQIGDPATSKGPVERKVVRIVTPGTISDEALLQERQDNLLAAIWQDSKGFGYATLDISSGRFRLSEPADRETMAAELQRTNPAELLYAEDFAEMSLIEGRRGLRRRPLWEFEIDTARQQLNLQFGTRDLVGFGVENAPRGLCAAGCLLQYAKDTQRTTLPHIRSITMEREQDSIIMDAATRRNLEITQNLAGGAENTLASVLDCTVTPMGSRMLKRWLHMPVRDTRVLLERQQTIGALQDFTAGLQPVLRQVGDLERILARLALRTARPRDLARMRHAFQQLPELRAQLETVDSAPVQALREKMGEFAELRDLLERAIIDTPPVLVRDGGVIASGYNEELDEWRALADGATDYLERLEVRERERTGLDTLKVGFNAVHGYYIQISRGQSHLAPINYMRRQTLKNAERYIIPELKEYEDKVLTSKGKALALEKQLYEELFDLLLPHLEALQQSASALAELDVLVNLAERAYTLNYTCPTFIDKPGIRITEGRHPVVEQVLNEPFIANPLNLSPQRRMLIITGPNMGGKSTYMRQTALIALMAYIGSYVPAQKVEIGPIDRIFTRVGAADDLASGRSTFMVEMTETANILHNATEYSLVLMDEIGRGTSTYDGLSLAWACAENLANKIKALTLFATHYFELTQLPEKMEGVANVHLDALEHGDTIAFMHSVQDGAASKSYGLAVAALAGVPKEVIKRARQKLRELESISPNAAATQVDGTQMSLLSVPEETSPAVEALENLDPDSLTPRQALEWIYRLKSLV
Assay: stopped-flow FRET kinetics
Outcome measure: Kd (µM)
Give the number; µM is assumed, so skip it.

**Q:** Report Kd for 30-1ΔT (dsDNA) DNA 1: AACTGCCAGGCACCAGTGTCAGCGTCGTAT DNA 2: ATACGACGCTGACACTGGTGCCTTGGCAGTT please.
**A:** 0.137
